Molecular target: T1, human soluble urokinase plasminogen activator receptor (hsuPAR) (human, UniProt Q03405 23-303, limits assumed)
T1 construct: also called human suPAR; rhuPAR-His
T1 sequence (Q03405 23-303 limits assumed): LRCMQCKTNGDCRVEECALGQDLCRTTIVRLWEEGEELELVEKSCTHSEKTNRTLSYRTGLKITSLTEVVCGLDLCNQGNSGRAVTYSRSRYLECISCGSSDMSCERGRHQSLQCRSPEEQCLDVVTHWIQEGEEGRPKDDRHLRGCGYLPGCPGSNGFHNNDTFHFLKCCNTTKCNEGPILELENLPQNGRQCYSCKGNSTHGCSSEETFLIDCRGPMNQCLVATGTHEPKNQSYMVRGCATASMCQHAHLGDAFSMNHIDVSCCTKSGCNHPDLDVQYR
Test: BLI (Octet) off-rate screen of scFv
value.kind: koff (s⁻¹)
Enter your answer as a number in s⁻¹; do not include the unit.

Can you look up the measured koff of suPAR_DB01_H04 (scFv, V domains shown, Screened as scFv) VH: QVQLVQSGAEVKKPGASVKVSCKASGYTFTNYYMHWVRQAPGQGLEWMGWIDPNSGGTNYAQKFQGRVTMTRDTSTSTVYMELSSLRSEDTAVYYCARGYDVDWFVYWGQGTLVTVSS VL: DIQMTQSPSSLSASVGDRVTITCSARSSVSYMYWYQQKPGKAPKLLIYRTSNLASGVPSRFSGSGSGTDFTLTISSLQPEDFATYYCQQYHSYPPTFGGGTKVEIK for me?
0.00242

Can you look up the measured koff of suPAR_DB01_F04 (scFv, V domains shown, Screened as scFv) VH: QVQLVQSGAEVKKPGASVKVSCKASGYTFTDYYMHWVRQAPGQGLEWMGWIDHSNGNTIYAQKFQGRVTMTRDTSTSTVYMELSSLRSEDTAVYYCARGYDVDWFVYWGQGTLVTVSS VL: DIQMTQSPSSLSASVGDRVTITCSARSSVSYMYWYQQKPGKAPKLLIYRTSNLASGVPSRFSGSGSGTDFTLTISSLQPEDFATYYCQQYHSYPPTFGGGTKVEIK for me?
0.00309

Can you look up the measured koff of suPAR_DB01_H08 (scFv, V domains shown, Screened as scFv) VH: QVQLVQSGAEVKKPGASVKVSCKASGFNIKDYYIHWVRQAPGQGLEWMGWIDPNGGGTQYAQKFQGRVTMTRDTSTSTVYMELSSLRSEDTAVYYCARGYDVDWFVYWGQGTLVTVSS VL: DIQMTQSPSSLSASVGDRVTITCRASSSVSYMYWYQQKPGKAPKLLIYRTSNLQSGVPSRFSGSGSGTDFTLTISSLQPEDFATYYCQQYHSYPPTFGGGTKVEIK for me?
0.00281

Can you look up the measured koff of suPAR_DB02_A08 (scFv, V domains shown, Screened as scFv) VH: QVQLVQSGAEVKKPGASVKVSCKASGYTFTTYYMHWVRQAPGQGLEWMGWIDPENGNTIYAQKFQGRVTMTRDTSTSTVYMELSSLRSEDTAVYYCARGYDVDWFVYWGQGTLVTVSS VL: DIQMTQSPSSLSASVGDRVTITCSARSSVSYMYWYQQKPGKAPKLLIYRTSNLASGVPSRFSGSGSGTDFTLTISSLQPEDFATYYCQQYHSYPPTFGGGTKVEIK for me?
0.00363

Can you look up the measured koff of suPAR_DB01_F08 (scFv, V domains shown, Screened as scFv) VH: QVQLVQSGAEVKKPGASVKVSCKASGYTFTGYYMHWVRQAPGQGLEWMGWIDHENGSTIYAQKFQGRVTMTRDTSTSTVYMELSSLRSEDTAVYYCARGYDVDWFVYWGQGTLVTVSS VL: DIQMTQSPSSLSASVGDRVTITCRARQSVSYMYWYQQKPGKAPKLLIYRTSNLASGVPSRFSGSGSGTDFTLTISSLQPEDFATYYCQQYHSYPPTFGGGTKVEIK for me?
0.000505
